targetOrTestSystem: human GcgR (Homo sapiens)
Sequence (P47871 26-477): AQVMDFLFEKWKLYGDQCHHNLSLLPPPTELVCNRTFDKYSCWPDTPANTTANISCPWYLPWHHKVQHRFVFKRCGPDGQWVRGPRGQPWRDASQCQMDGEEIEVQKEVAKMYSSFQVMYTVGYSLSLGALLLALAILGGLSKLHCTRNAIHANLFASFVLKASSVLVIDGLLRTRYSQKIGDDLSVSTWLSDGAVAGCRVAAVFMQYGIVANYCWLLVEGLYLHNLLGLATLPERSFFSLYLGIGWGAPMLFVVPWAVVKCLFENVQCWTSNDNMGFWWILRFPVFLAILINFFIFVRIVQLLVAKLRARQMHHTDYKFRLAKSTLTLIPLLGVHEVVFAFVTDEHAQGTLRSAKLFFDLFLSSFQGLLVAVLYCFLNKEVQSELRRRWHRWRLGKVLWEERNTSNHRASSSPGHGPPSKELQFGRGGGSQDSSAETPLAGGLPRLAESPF
assay: Functional cAMP activity in the presence of 1% HSA
Format: cell-based
conditionParameters: read-out: cAMP Rel EC50, hGcgR
Starred links: 1 amine or outer side, 2 acyl side, 3 side chain; linkers in the order of their positions; H or OH if unused. Non-standard residues stand in square brackets, D forms with d. Groups on a side chain read outwards from the residue. *: point of attachment. C20 diacid = O=C(O)CCCCCCCCCCCCCCCCCCC(=O)*; C18 diacid = O=C(O)CCCCCCCCCCCCCCCCC(=O)*; αMePhe(2-F) = C[C@](N)(Cc1ccccc1F)C(=O)O; γGlu = O=C(O)[C@H](CCC(=O)[*:2])N[*:1]; αMe4Pal = C[C@](N)(Cc1ccncc1)C(=O)O; αMeY = C[C@](N)(Cc1ccc(O)cc1)C(=O)O; 4Pal = N[C@@H](Cc1ccncc1)C(=O)O; αMeL = CC(C)C[C@](C)(N)C(=O)O; αMeS = C[C@](N)(CO)C(=O)O; Orn = NCCC[C@H](N)C(=O)O; AEEA = NCCOCCOCC(=O)O; Aib = CC(C)(N)C(=O)O
measurementKind: pEC50
Give only the number. pEC50 is defined as minus log10 of concentration in molar units.

Worked examples follow.
>  <substance>
H-Y[Aib]QGT[αMePhe(2-F)]TSD[4Pal]SI[αMeL]LD[Orn]K([AEEA-γGlu-C18 diacid])AQ[αMe4Pal][Orn]FI[dE][αMeY]LIEGGPSSGEPPPETE-NH2 [Example 678]

>  <pEC50>
6.61

$$$$
>  <substance>
H-Y[Aib]QGTFTSD[4Pal]S[Orn][αMeL]LD[Orn]K([γGlu-γGlu-C18 diacid])AQ[αMe4Pal]AFIEYLIAGGPSSGEPPPSGTEE-NH2 [Example 985]

>  <pEC50>
6.43

$$$$
>  <substance>
H-Y[Aib]QGTFTSDFSK[αMeL]LDKK([AEEA-γGlu-C20 diacid])AQ[Aib]AFIEYLLEGGPSSGEPPPEEG-NH2 [Example 35]

>  <pEC50>
5.86

$$$$
>  <substance>
H-Y[Aib]QGT[αMePhe(2-F)]TSD[4Pal][αMeS]I[αMeL]LD[Orn]K([AEEA-γGlu-C18 diacid])AQ[Aib][Orn]FIEYLIEGGPSSGEPPPEEG-NH2 [Example 476]

>  <pEC50>
7.04

$$$$

Reported pEC50 for H-Y[Aib]QGTFTSD[4Pal]S[Orn][αMeL]LD[Orn]K([Glu-Glu-γGlu-C18 diacid])AQ[αMe4Pal]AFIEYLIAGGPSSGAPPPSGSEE-NH2 [Example 1062] : what is it? 5.62

====

assay: In vivo ileum (distal loop) absorption assay
conditionParameters: Sprague Dawley, rat, 300 μM peptide with 100 mM C10, rats, 20 min, read-out: 20 min IL plasma concentration
Starred links: 1 amine or outer side, 2 acyl side, 3 side chain; linkers in the order of their positions; H or OH if unused. Non-standard residues stand in square brackets, D forms with d. Groups on a side chain read outwards from the residue. No end group written: not given here. *: point of attachment. C18 diacid = O=C(O)CCCCCCCCCCCCCCCCC(=O)*; γGlu = O=C(O)[C@H](CCC(=O)[*:2])N[*:1]; αMe4Pal = C[C@](N)(Cc1ccncc1)C(=O)O; αMeL = CC(C)C[C@](C)(N)C(=O)O; AEEA = NCCOCCOCC(=O)O; Aib = CC(C)(N)C(=O)O
measurementKind: level at time molar at 20 min
Report field: quantity (unit follows the number).

Reported level at time molar at 20 min for Y[Aib]QGTFTSDFSQ[αMeL]LDKK([AEEA-γGlu-C18 diacid])AQ[αMe4Pal]AFIEYLIE[Aib]GESSGAPPPSGS-NH2 [Example 232] : what is it? 235 nM

Reference for the values: patent US20240270821A1
